Would you kindly list OD450 for each of these binders?
target.or.system: Hemagglutinin of influenza A/Solomon Islands/3/06 (H1N1), on inactivated whole virions (Influenza A virus A/Solomon …)
protocol.description: ELISA, B cell culture supernatant on inactivated whole virions
Answers are plain numbers, in OD450.

binder: TCN-560 (5084_P10) (antibody, V domains shown) VH: EVQLVESGGGLVQPGGSLRLSCAASGFIFRNYWMSWVRQAPGKGLEWVANIKQDGREKYYVDSLRGRVNISRDNAENSLYLHMNSLRVEDTAVYFCARARMVVVTGDGFDVWGHGTMVTVSS VL: DIQMTQSPSSLSASVGDRVTITCRASQNIKRYFNWYQQKPGKAPKLLIYAASNLENGVPSRFSGSGSGTDFTLTISSLQPEDFATYYCQQSFSKSWTFGQGTNVDIK
OD450 (OD450): 3.63
//
binder: TCN-531 (5091_H13) (antibody, V domains shown) VH: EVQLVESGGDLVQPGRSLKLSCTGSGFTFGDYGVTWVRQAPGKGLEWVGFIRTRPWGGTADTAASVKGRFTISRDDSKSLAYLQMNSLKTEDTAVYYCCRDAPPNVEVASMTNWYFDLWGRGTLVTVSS VL: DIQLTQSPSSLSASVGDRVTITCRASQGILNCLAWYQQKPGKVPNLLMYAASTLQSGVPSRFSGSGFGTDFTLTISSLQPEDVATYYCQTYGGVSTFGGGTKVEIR
OD450 (OD450): 3.23
//
binder: TCN-544 (5082_A19) (antibody, V domains shown) VH: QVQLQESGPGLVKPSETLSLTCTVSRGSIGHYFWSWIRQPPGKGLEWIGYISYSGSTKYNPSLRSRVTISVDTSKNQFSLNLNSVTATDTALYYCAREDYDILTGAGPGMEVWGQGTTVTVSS VL: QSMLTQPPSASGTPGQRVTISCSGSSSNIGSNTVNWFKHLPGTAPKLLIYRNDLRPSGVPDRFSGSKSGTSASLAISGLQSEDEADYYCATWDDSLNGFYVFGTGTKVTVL
OD450 (OD450): 0.32

Field: OD450. Fill in for each record below.
1. TCN-521 (3280_D18) (antibody, V domains shown) VH: EVQLVQSGGGLVQPGGSLRLACVVSGFTVTSNYITWVRQAPGKGLEWVSVIYSHGRAYYSASVNGRFTISRHTSKNTVYLEMNSLRPEDTAVYYCAGGGLVGGYDEYFFDYWGQGTLATVSS VL: ETVLTQSPGTLSLTPGERATLSCRVGQSVSGSHLAWYQQKPGQAPRLLIYGASSRATGIPDRFGGSVSGTDFTLTISRLEPEDSAVYYCQQYGDSRYTFGQGTKLEIK
2. TCN-551 (5243_D01) (antibody, V domains shown) VH: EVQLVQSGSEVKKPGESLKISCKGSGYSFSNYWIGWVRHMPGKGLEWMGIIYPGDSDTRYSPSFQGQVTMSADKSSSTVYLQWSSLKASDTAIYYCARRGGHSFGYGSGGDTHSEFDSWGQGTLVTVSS VL: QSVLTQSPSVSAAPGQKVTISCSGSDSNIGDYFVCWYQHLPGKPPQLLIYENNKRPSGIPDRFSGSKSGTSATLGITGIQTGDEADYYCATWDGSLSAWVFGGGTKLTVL

Reply:
[3.7, 3.35]
